# assayedTarget: Glutamate receptor 1 (Rattus norvegicus, UniProt P19490)
# Sequence (P19490 whole entry): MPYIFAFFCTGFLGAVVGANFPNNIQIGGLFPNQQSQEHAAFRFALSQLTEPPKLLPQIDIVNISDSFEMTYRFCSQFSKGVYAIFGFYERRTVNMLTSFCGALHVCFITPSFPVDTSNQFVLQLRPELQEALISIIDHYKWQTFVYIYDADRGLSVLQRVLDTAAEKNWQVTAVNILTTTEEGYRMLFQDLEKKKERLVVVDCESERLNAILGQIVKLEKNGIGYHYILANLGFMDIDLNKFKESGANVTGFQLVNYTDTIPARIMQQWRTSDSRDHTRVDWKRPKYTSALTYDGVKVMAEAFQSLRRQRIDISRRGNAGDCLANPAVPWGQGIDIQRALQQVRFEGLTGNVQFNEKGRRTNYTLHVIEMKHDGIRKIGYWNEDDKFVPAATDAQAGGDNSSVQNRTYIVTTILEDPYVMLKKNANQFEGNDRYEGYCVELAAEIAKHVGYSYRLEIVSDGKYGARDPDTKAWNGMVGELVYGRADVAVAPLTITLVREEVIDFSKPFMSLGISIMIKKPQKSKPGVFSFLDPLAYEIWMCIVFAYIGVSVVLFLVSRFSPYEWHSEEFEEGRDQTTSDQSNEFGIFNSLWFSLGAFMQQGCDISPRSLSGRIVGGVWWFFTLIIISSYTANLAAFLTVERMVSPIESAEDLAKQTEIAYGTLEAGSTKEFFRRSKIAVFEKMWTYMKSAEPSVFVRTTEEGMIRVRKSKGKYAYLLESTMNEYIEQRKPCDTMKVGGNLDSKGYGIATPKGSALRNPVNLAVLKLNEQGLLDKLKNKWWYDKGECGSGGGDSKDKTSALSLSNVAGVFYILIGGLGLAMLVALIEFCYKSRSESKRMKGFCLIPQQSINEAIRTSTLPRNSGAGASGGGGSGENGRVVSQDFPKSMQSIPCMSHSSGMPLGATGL
# assayMethodText: Antagonist activity at rat recombinant GLuR1 expressed in Xenopus oocytes assessed as inhibition of glutamate-induced current by two-electrode voltage-clamp electrophysiology
pIC50: −log10 of the molar value.
quantityKind: pIC50

[P] O=C(O)c1ccc(-n2c(/C=C/c3cccc4ccccc34)nc3ccccc3c2=O)cc1
[Q] O=C(O)c1ccc(-n2c(/C=C/c3cccc([N+](=O)[O-])c3)nc3ccc(Br)cc3c2=O)cc1
Endpoint returns whichever of P and Q has the numerically higher pIC50. // respond with label for picked entry
Q
(Q: 5.10, P: 4.09)

* * *

# assayedTarget: Ionotropic glutamate receptor NMDA 1/2D (Rattus norvegicus, UniProt P35439+Q62645)
# Sequence (Q62645 whole entry, other chains not shown): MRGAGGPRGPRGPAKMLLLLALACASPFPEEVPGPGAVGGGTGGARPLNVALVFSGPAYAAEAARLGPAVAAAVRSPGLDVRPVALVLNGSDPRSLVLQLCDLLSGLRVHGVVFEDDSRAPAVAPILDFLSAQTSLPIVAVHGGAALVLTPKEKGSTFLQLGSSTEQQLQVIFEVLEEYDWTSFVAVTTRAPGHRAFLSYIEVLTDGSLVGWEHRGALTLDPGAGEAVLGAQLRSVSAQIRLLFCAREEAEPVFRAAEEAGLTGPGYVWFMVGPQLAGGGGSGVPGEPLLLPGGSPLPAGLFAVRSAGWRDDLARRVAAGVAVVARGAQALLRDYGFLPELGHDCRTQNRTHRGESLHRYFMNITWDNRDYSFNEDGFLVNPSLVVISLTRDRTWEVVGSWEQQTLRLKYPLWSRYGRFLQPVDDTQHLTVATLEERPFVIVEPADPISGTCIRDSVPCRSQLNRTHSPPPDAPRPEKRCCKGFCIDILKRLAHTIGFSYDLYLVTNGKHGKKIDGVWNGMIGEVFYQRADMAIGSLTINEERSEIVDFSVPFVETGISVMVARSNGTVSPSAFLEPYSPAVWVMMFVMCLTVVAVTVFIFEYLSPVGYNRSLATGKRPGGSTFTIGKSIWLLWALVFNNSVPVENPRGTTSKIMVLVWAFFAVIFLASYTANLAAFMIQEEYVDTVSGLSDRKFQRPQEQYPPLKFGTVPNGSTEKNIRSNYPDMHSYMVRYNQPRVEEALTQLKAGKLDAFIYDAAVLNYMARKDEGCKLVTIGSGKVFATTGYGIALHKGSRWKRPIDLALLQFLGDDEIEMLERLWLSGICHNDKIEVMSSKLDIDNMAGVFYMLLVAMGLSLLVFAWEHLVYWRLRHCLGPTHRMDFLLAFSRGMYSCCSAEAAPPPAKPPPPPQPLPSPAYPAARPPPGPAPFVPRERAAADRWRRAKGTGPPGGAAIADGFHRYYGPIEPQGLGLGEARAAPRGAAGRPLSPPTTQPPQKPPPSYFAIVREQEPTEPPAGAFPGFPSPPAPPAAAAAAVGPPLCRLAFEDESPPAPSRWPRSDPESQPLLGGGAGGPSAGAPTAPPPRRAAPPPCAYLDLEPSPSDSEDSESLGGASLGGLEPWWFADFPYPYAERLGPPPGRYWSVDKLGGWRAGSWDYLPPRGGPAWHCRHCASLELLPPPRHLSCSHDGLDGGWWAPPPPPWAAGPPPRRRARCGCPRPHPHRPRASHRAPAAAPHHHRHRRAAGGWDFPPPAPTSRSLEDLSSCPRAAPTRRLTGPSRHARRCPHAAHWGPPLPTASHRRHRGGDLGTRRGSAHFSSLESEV
# assayMethodText: Antagonist activity at rat recombinant NR1-NR2D receptor expressed in Xenopus oocytes at holding potential of -40mV by two-electrode voltage-clamp electrophysiology
quantityKind: IC50 (µM)

Recall and state the measured IC50 for O=C(O)c1ccc(-n2c(/C=C/c3cccc([N+](=O)[O-])c3)nc3cc(Cl)ccc3c2=O)cc1 .
15

Recall and state the measured IC50 for O=C(O)c1ccc(-n2c(/C=C/c3cccc(C(F)(F)F)c3)nc3ccccc3c2=O)cc1 .
12

Recall and state the measured IC50 for Cc1cccc(/C=C/c2nc3ccccc3c(=O)n2-c2ccc(C(=O)O)cc2)c1 .
18

Recall and state the measured IC50 for O=C(O)c1ccc(-n2c(/C=C/c3cccc4ccccc34)nc3ccccc3c2=O)cc1 .
6

Recall and state the measured IC50 for COc1ccc(-n2c(/C=C/c3cccc([N+](=O)[O-])c3)nc3ccccc3c2=O)cc1 .
168

[I] O=C(O)c1ccccc1-n1c(/C=C/c2cccc([N+](=O)[O-])c2)nc2ccccc2c1=O
[II] O=C(O)c1ccc(-n2c(/C=C/c3cccc([N+](=O)[O-])c3)nc3c(Cl)cccc3c2=O)cc1
[III] COC(=O)c1cccc(/C=C/c2nc3ccc(OC)cc3c(=O)n2-c2ccc(C(=O)O)cc2)c1
Sort ascending by IC50. Ranked list of labels, please, in the requested order.
III, II, I
(III: 6 µM, II: 9 µM, I: 148 µM)

* * *

# assayedTarget: Glutamate receptor 1 (Rattus norvegicus)
# assayMethodText: Antagonist activity at rat recombinant GLuR1 expressed in Xenopus oocytes assessed as inhibition of glutamate-induced current by two-electrode voltage-clamp electrophysiology
# Assay type: functional, cell-based, Oocyte
quantityKind: IC50 (µM)

[1] COc1cccc(/C=C/c2nc3ccc(OC)cc3c(=O)n2-c2ccc(C(=O)O)cc2)c1
[2] COC(=O)c1ccc(-n2c(/C=C/c3cccc([N+](=O)[O-])c3)nc3ccc(OC)cc3c2=O)cc1
I'm curious, which of these has a smaller IC50 number: 1 or 2 ? // respond with label for picked entry
2
(2: 138 µM, 1: 220 µM)

* * *

# assayedTarget: Ionotropic glutamate receptor NMDA 1/2D (Rattus norvegicus, UniProt P35439+Q62645)
# assayMethodText: Antagonist activity at rat recombinant NR1-NR2D receptor expressed in Xenopus oocytes at holding potential of -40mV by two-electrode voltage-clamp electrophysiology
pIC50: −log10 of the molar value.
quantityKind: pIC50

Specify pIC50 for COc1ccc2nc(/C=C/c3cccc([N+](=O)[O-])c3)n(-c3ccc(C(=O)O)cc3)c(=O)c2c1 , system Ionotropic glutamate receptor NMDA 1/2D (Rattus norvegicus, UniProt P35439+Q62645).
5.52

Specify pIC50 for O=C(O)c1ccc(-n2c(/C=C/c3cccc([N+](=O)[O-])c3)nc3ccc(/C=C/c4ccccc4)cc3c2=O)cc1 , system Ionotropic glutamate receptor NMDA 1/2D (Rattus norvegicus, UniProt P35439+Q62645).
5.40

Specify pIC50 for O=C(O)c1ccc(-n2c(/C=C/c3ccc([N+](=O)[O-])cc3)nc3c(Cl)cc(Cl)cc3c2=O)cc1 , system Ionotropic glutamate receptor NMDA 1/2D (Rattus norvegicus, UniProt P35439+Q62645).
5.22

[P] COc1cccc(/C=C/c2nc3ccc(OC)cc3c(=O)n2-c2ccc(C(=O)O)cc2)c1
[Q] O=C(O)c1ccc(-n2c(/C=C/c3ccc4c(c3)OCCO4)nc3ccccc3c2=O)cc1
I'm curious, which of these has a smaller pIC50 number: P or Q ? // respond with label for picked entry
Q

[a] COC(=O)c1ccc(-n2c(/C=C/c3cccc([N+](=O)[O-])c3)nc3ccc(OC)cc3c2=O)cc1
[b] O=C(O)c1cccc(-n2c(/C=C/c3cccc([N+](=O)[O-])c3)nc3ccc(I)cc3c2=O)c1
I'm curious, which of these has a smaller pIC50 number: a or b ? // respond with label for picked entry
a

* * *

# assayedTarget: Ionotropic glutamate receptor NMDA 1/2D (Rattus norvegicus, UniProt P35439+Q62645)
# assayMethodText: Antagonist activity at rat recombinant NR1-NR2D receptor expressed in Xenopus oocytes at holding potential of -40mV by two-electrode voltage-clamp electrophysiology
quantityKind: IC50 (µM)

The following molecules have reported results that may help.
Recall and state the measured IC50 for O=C(O)c1ccccc1-n1c(/C=C/c2ccc([N+](=O)[O-])cc2)nc2ccccc2c1=O .
278

Recall and state the measured IC50 for O=c1c2ccccc2nc(/C=C/c2cccnc2)n1-c1ccccc1 .
35

Recall and state the measured IC50 for COc1ccc(-n2c(/C=C/c3ccccc3[N+](=O)[O-])nc3ccccc3c2=O)cc1 .
125

Recall and state the measured IC50 for COc1ccccc1-n1c(/C=C/c2ccc([N+](=O)[O-])cc2)nc2ccccc2c1=O .
290

Recall and state the measured IC50 for COc1ccc2nc(/C=C/c3cccc(C(=O)O)c3)n(-c3ccc(C(=O)O)cc3)c(=O)c2c1 .
131

Recall and state the measured IC50 for O=C(O)c1ccc(-n2c(/C=C/c3cccc([N+](=O)[O-])c3)nc3ccc([N+](=O)[O-])cc3c2=O)cc1 .
90

[A] O=C(O)c1cccc(-n2c(/C=C/c3ccccc3[N+](=O)[O-])nc3ccccc3c2=O)c1
[B] Cc1ccc2nc(/C=C/c3cccc([N+](=O)[O-])c3)n(-c3ccc(C(=O)O)cc3)c(=O)c2c1
I'm curious, which of these has a smaller IC50 number: A or B ? // respond with label for picked entry
B
(B: 2 µM, A: 7 µM)

[1] COc1cccc(/C=C/c2nc3ccccc3c(=O)n2-c2ccc(C(=O)O)cc2)c1
[2] O=C(O)c1ccc(-n2c(/C=C/c3ccc([N+](=O)[O-])cc3)nc3ccc(I)cc3c2=O)cc1
[3] Cc1ccc2nc(/C=C/c3ccccc3)n(-c3ccc(C(=O)O)cc3)c(=O)c2c1
[4] O=C(O)c1ccc(-n2c(/C=C/c3cccc([N+](=O)[O-])c3)nc3ccc(-c4cccs4)cc3c2=O)cc1
[5] COc1ccc2nc(/C=C/c3cccc([N+](=O)[O-])c3)n(-c3cccc(C(=O)O)c3)c(=O)c2c1
Sort ascending by IC50. Ranked list of labels, please, in the requested order.
2, 4, 1, 5, 3
(2: 1 µM, 4: 3 µM, 1: 9 µM, 5: 13 µM, 3: 26 µM)

* * *

# assayedTarget: Glutamate NMDA receptor; Grin1/Grin2b (Rattus norvegicus, UniProt P35439+Q00960)
# Sequence (Q00960 whole entry, other chains not shown): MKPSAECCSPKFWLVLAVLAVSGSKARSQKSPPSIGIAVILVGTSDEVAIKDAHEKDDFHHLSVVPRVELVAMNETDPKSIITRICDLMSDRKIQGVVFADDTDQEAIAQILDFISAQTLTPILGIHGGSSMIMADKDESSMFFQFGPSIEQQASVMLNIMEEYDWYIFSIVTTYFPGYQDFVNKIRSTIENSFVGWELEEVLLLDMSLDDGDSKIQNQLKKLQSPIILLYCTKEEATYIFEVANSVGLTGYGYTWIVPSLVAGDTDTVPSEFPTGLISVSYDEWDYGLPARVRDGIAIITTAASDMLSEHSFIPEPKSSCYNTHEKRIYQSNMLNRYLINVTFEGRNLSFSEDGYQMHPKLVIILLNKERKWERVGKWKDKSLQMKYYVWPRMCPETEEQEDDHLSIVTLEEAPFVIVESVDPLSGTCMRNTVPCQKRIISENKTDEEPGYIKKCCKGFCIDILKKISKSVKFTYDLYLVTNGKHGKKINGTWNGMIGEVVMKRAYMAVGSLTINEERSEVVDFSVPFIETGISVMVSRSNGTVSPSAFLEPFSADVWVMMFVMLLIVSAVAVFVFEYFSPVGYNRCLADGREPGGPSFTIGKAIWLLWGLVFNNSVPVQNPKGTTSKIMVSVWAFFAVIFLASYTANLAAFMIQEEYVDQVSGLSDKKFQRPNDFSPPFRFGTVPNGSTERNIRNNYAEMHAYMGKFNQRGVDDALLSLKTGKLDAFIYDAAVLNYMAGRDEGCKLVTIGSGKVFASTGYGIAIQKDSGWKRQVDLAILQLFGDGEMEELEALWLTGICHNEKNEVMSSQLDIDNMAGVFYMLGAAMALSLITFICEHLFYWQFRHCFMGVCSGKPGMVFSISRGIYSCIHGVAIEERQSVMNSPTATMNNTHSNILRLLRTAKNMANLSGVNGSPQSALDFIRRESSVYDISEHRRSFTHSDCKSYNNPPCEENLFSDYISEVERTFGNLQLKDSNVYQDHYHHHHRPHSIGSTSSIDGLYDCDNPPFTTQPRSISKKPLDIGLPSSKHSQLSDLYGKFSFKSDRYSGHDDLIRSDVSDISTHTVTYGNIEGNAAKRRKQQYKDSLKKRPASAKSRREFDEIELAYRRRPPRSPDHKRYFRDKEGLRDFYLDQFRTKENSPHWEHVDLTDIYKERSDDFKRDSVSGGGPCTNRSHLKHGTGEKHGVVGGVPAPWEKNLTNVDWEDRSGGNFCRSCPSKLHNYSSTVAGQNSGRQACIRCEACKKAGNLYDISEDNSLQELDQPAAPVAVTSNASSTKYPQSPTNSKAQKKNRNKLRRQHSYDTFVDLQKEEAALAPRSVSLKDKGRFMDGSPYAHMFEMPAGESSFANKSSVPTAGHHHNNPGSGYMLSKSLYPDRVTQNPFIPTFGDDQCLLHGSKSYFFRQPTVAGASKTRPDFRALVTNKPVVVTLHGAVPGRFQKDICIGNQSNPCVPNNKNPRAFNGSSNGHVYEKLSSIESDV
# assayMethodText: Antagonist activity at rat recombinant NR1-NR2B receptor expressed in Xenopus oocytes at holding potential of -40mV by two-electrode voltage-clamp electrophysiology
# Assay type: functional, cell-based, Oocyte
# conditionContext: read-out: IC50
quantityKind: IC50 (µM)

Recall and state the measured IC50 for Cc1ccc2nc(/C=C/c3ccccc3)n(-c3ccc(C(=O)O)cc3)c(=O)c2c1 .
25

Recall and state the measured IC50 for O=C(O)c1ccccc1-n1c(/C=C/c2ccc([N+](=O)[O-])cc2)nc2ccccc2c1=O .
197

Recall and state the measured IC50 for O=C(O)c1ccc(-n2c(/C=C/c3ccccc3)nc3ccccc3c2=O)cc1 .
85

[P] O=C(O)c1ccccc1-n1c(/C=C/c2cccc([N+](=O)[O-])c2)nc2ccccc2c1=O
[Q] O=C(O)c1ccc(-n2c(/C=C/c3cccc([N+](=O)[O-])c3)nc3ccc(Br)cc3c2=O)cc1
I'm curious, which of these has a smaller IC50 number: P or Q ? // respond with label for picked entry
Q
(Q: 13 µM, P: 235 µM)

* * *

# Species on record: Rattus norvegicus
# assayMethodText: Selectivity ratio of IC50 for rat recombinant GLuR1 to IC50 for rat recombinant NR1-NR2D receptor
quantityKind: Ratio IC50

The following compounds have reported results that may help.
Recall and state the measured Ratio IC50 for O=C(O)c1ccc(-n2c(/C=C/c3cccc([N+](=O)[O-])c3)nc3cc4ccccc4cc3c2=O)cc1 .
2

Recall and state the measured Ratio IC50 for O=C(O)c1ccc(-n2c(/C=C/c3ccc(O)cc3)nc3ccccc3c2=O)cc1 .
3

Recall and state the measured Ratio IC50 for COc1ccc2cc(/C=C/c3nc4ccccc4c(=O)n3-c3ccc(C(=O)O)cc3)ccc2c1 .
9

[P] COc1ccc(/C=C/c2nc3ccccc3c(=O)n2-c2ccc(C(=O)O)cc2)cc1
[Q] O=C(O)c1ccc(-n2c(/C=C/c3cccc([N+](=O)[O-])c3)nc3ccc(/C=C/c4ccccc4)cc3c2=O)cc1
I'm curious, which of these has a smaller Ratio IC50 number: P or Q ? // respond with label for picked entry
P
(P: 8, Q: 33)

[A] O=C(O)c1ccc(-n2c(/C=C/c3ccc(OC(F)F)cc3)nc3ccccc3c2=O)cc1
[B] O=C(O)c1ccc(-n2c(/C=C/c3cccc([N+](=O)[O-])c3)nc3ccc(-c4ccccc4)cc3c2=O)cc1
I'm curious, which of these has a smaller Ratio IC50 number: A or B ? // respond with label for picked entry
B
(B: 3, A: 9)
